Data credit: patent US20210380703A1

Overview of recorded optical density for various binders
experimental target: mouse ACVR2A (mouse, UniProt P27038 20-135, limits assumed); further: test concentration or dose not given here
Sequence (P27038 20-135 limits assumed): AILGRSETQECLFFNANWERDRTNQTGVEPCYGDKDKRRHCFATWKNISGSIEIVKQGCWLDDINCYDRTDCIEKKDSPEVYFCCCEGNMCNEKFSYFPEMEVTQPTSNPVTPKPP
run description: ELISA
Give the value, in units of OD, as a plain number.

Use the examples below as a reference point.
# return recorded optical density for input 368_C12 (antibody, V domains shown, Group II) VH: EVQLLESGGGLVQPGGSLRLSCAASGFTFDSYGMHWVRQAPGKGLEWVASINYNGGYTSYADSVKGRFTISRDNSKNTLYLQMNSLRAEDTAVYYCARAATWHDTHLDYWGQGTLVTVSS VL: DIQMTQSPSSLSASVGDRVTITCRASQSILTYLNWYQQKPGKAPKLLIYAATSRASGVPSRFSGSGSGTDFTLTISSLQPEDFATYYCQQSDSNPLTFGGGTKVEIK
2.45

# return recorded optical density for input 365_C03 (antibody, V domains shown, Group I) VH: EVQLLESGGGLVQPGGSLRLSCAASGFTFSSYGMHWVRQAPGKGLEWVAGINYNSGYKGYADSVKGRFTISRDNSKNTLYLQMNSLRAEDTAVYYCARAANWHDTHLDYWGQGTLVTVSS VL: DIQMTQSPSSLSASVGDRVTITCRASQSILTYVNWYQQKPGKAPKLVIYATTSLASGVPSRFSGSGSGTDFTLTISSLQPEDFATYYCQQSYNTPLTFGGGTKVEIK
2.65

Others:
# return recorded optical density for input 372_D07 (antibody, V domains shown, Group II) VH: EVQLLESGGGLVQPGGSLRLSCAASGFTFSSYGMNWVRQAPGKGLEWVAGINYNGGYTSYADSVKGRFTISRDNSKNTLYLQMNSLRAEDTAVYYCARAATWHDTHLDYWGQGTLVTVSS VL: DIQMTQSPSSLSASVGDRVTITCRASQSILSYLNWYQQKPGKAPKLLIYAATSRASGVPSRFSGSGSGTDFTLTISSLQPEDFATYYCQQSYESPLTFGGGTKVEIK
2.99
